Form field: pIC50 (one value per entry).
- Test system: K562 cells
- measurement_notes: SRB antiproliferative assay, monolayer culture
- Assay type: cell-based, human
- conditions: Homo sapiens, K562, 72 h, mean ± S.E.M.
pIC50 field: float, defined as -log10 of concentration (mol/L).

Would you please look over these solved cases?
C(=NNc1ncnc2ccccc12)c1ccc(OCc2cn(Cc3ccccc3)nn2)cc1 [Compound 8g] : 4.02
CC(C)(C)c1ccc(Cn2cc(COc3ccc(C=NNc4ncnc5ccccc45)cc3)nn2)cc1 [Compound 8h] : 4.46
COc1cc2nccc(Oc3ccc(NC(=O)C4(C(=O)Nc5ccc(F)cc5)CC4)cc3)c2cc1OC [Cabozantinib, reference compound] : 5.40
Clc1ccc(Cn2cc(COc3ccc(C=NNc4ncnc5ccccc45)cc3)nn2)cc1 [Compound 8e] : 4.21
Brc1ccc(Cn2cc(COc3ccc(C=NNc4ncnc5ccccc45)cc3)nn2)cc1 [Compound 8a] : 4.24

--- query ---
Exam item: Data request, read-out pIC50, for Cc1ccc(Cn2cc(COc3ccc(C=NNc4ncnc5ccccc45)cc3)nn2)cc1 [Compound 8c]
Marked response: 4.50

---

- System: EBC-1 cells
- measurement_notes: SRB antiproliferative assay, monolayer culture
- Format: cell-based, human
- conditions: 72 h, mean ± S.E.M.
observation_type: IC50 (µM)
Report as a plain number; the unit µM is understood.

Exam item: Data request, read-out IC50, for O=C1c2ccccc2C(=O)N1CCCn1cc(COc2ccccc2C=NNc2ncnc3ccccc23)nn1
Marked response: 89.4

---

Form field: IC50 (one value per entry).
- Test system: EBC-1 cells
- measurement_notes: SRB antiproliferative assay, monolayer culture
- Type: cell-based, human
- conditions: Homo sapiens, EBC-1, 72 h, mean ± S.E.M.

C(=NNc1ncnc2ccccc12)c1ccc(OCc2cn(Cc3ccccc3)nn2)cc1 : > 100 µM

Exam item: Data request, read-out IC50, for O=[N+]([O-])c1ccc(Cn2cc(COc3ccc(C=NNc4ncnc5ccccc45)cc3)nn2)cc1
Marked response: > 100 µM

Exam item: Data request, read-out IC50, for Fc1ccc(Cn2cc(COc3ccc(C=NNc4ncnc5ccccc45)cc3)nn2)cc1
Marked response: > 100 µM

---

- Tested on: K562 cells
- measurement_notes: SRB antiproliferative assay, monolayer culture
- Type: cell-based, human
- conditions: Homo sapiens, K562, 72 h, mean ± S.E.M.
observation_type: IC50

Would you please look over these solved cases?
Clc1ccc(Cn2cc(COc3ccc(C=NNc4ncnc5ccccc45)cc3)nn2)cc1Cl : > 100 µM
O=[N+]([O-])c1ccc(Cn2cc(COc3ccc(C=NNc4ncnc5ccccc45)cc3)nn2)cc1 : > 100 µM

Exam item: // lookup IC50 | system=K562 cells | key= Fc1ccc(Cn2cc(COc3ccc(C=NNc4ncnc5ccccc45)cc3)nn2)cc1
Marked response: > 100 µM
